Taken from patent US20230002324A1.

systemTested: CYP3A4 (Homo sapiens, UniProt P08684)
Construct: from tissue; host or cells: pooled human liver microsomes
Sequence (P08684 whole entry): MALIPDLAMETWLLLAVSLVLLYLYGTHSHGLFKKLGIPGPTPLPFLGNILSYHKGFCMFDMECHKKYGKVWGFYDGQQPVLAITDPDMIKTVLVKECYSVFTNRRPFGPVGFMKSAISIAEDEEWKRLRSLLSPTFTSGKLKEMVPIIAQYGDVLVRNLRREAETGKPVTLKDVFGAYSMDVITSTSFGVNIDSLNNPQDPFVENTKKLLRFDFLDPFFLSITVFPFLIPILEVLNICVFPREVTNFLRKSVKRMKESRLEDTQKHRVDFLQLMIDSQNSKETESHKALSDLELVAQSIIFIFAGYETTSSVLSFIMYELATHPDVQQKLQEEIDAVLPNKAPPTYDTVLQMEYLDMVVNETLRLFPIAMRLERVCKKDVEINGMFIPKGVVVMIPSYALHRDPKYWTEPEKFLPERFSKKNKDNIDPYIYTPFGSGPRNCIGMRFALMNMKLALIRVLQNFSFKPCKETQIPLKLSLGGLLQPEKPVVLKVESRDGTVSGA
assayText: CYP450 Inhibition Assay 1 (pooled human liver microsomes, midazolam)
Type: in vitro ADME
testConditions: Table 3; HLM 0.05 mg/mL, midazolam 5 μM, 5 min
Listed compounds paired with reported IC50
Enter your answer as a number in µM; do not include the unit.

CCC1=C(Cc2ccc(C(F)(F)F)c(C#N)n2)C(=O)c2cc(F)cc(F)c2C1=O; 6.66

`CCC1=C(Cc2ccc(C(F)(F)F)c(C#N)n2)C(=O)c2c(F)ccc(F)c2C1=O` yielded IC50 of 2.73

`CC1=C(Cc2ccc(C(F)(F)F)c(C#N)n2)C(=O)c2ccc(F)cc2C1=O` yielded IC50 of 4.14

====

systemTested: CYP3A4 (Homo sapiens, UniProt P08684)
Construct: from tissue; host or cells: pooled human liver microsomes
assayText: CYP450 Inhibition Assay 2 (pooled human liver microsomes, 5 concentrations)
Type: in vitro ADME
testConditions: human, pooled human liver microsomes; Table 3; HLM 0.05 mg protein/mL, 10 min reaction
propertyLabel: IC50 at 10 min

Illustrative cases are given below, each with its answer.
CC1=C(Cc2ccc(C(=O)NC3CCCC3)cn2)C(=O)c2ccccc2C1=O; ≥ 50 µM
CC1=C(Cc2ncccc2C(F)(F)F)C(=O)c2ccccc2C1=O; ≥ 50 µM
CC1=C(Cc2ccc(C(=O)O)cn2)C(=O)c2ccccc2C1=O; ≥ 50 µM
CC1=C(Cc2ccc(C#N)cn2)C(=O)c2ccccc2C1=O; ≥ 50 µM
CC(C)(C)CC1=C(Cc2ccc(C(F)(F)F)cn2)C(=O)c2ccccc2C1=O; ≥ 50 µM

Pending compound:
`CC1=C(Cc2ccc(C(=O)NCC3CC3)cn2)C(=O)c2ccccc2C1=O` yielded IC50 at 10 min of ≥ 50 µM
